test: melting temperature; fluorescence melt of hairpins on a sequencing array, two-state fit, raised by 9.35 °C to match UV melts; conditions: sodium 0.088 M
# note: exactly 40 °C is not below, so it is Criterion not met; use Criterion met for Tm strictly under it

## Input Say whether its Tm is strictly beneath 40 °C. Entry: GATGGAGGAAACCCCATC (((((.(....).)))))
## Output Criterion not met

## Input Just wondering, is Tm of GATCGTCTGACGATC ((((((...)))))) below 40 °C?
## Output Criterion not met

## Input Does GTCCTCGAAAGAGAGGAC ((((((....)))..))) have Tm strictly under 40 °C?
## Output Criterion not met

## Input Does GATCGCTGAGCGATC ((((((...)))))) have Tm strictly under 40 °C?
## Output Criterion not met

## Input Is Tm of GTAATCGAAAGATTAC ((((((....)))))) strictly below 40 °C?
## Output Criterion not met

## Input Does GACTAGGGAAACCTAGTC (((((((....))))))) have Tm strictly under 40 °C?
## Output Criterion not met

## Input Regarding GACACAGCGAAAGCTGTC (((..(((....)))))) , kindly confirm whether its Tm is beneath 40 °C.
## Output Criterion met

## Input Does GAAGGACGAAAGTCATTC (((.(((....))).))) have Tm strictly under 40 °C?
## Output Criterion not met

## Input Decide: Tm of GGCTCGACGAAAGTCGCC (((..(((....)))))) strictly below 40 °C?
## Output Criterion met

## Input Report whether reported Tm is lower than 40 °C (strictly) for GGCCAAGGAAACCTAGCC (((.(.(....).).)))
## Output Criterion met

## Input Field: below-cutoff. Rule: recorded Tm strictly less than 40 °C. Subject: GATCTACTTCTAGATC ((((((....))))))
## Output Criterion met

---

experiment: folding enthalpy; higher = less favourable; fluorescence melt of hairpins on a sequencing array, two-state fit; settings: sodium 0.088 M
Consider the following sequences; for each one, report its folding enthalpy.
Please give a number only; it is taken to be in kcal/mol.

## Input Look up folding enthalpy: GATCAAGCTGTTGATC ((((((....))))))
## Output -31.2

## Input So what does the record say about folding enthalpy for GATCACTCAGTGATC ((((((...)))))) ?
## Output -35.5

## Input Data request, read-out folding enthalpy, for GAATTCGGAAACGGATTC ((((.((....)).))))
## Output -36.2

## Input Which measured folding enthalpy value corresponds to GAGATAGGAAACCATCTC (((((.(....).))))) ?
## Output -23.5

## Input Record request: folding enthalpy value, item GGTAATCCGAAAGGAACC (((..(((....))))))
## Output -19.7

## Input Report folding enthalpy for CGAGTCGGAAACGAATCG (((.(((....))).))) please.
## Output -39.9

## Input folding enthalpy for GAATCGGGAAACCGATCC (.(((((....))))).) ?
## Output -15.6

## Input Can you look up the measured folding enthalpy of GCGTCGCGAAAGCAAGGC ((.(.((....)).).)) for me?
## Output -17.1

## Input Requested field: folding enthalpy. Item: GCCAGGCGAAAGCGGGGC (((..((....))..)))
## Output -23.9

## Input Recorded folding enthalpy for GACAGCGGAAACGCTATC ((.((((....)))).)) , please?
## Output -14

## Input Fill in the blank: the reported folding enthalpy of GGCCCTGGAAACAAGGCC ((((.((....)).)))) is ____.
## Output -36.7

## Input Fill in the blank: the reported folding enthalpy of GTCGCGTCGAAAGACGAC (((..(((....)))))) is ____.
## Output -8.6

## Input Any idea what folding enthalpy was measured for GAGATTGGAAACAATCCC (.(((((....))))).) ?
## Output -19.6

## Input Quick one: folding enthalpy of GTAACGCGAAAGCGATAC (((.(((....))).))) ?
## Output -24.1

## Input Can you share its folding enthalpy? I mean this sequence: GATCATCCTATGATC ((((((...))))))
## Output -33.1

## Input Fill blank: measured folding enthalpy of the sequence GCTCCACGAAAGTGCAGC (((.(((....))).))) is ____.
## Output -22.1

## Input Dear colleague, I am looking for the recorded folding enthalpy of the following sequence: GTGTACGAAAGTACAC ((((((....))))))
## Output -29.7

## Input I am curious: what folding enthalpy value has been reported for GGAGTGGGAAACCACTTC (.(((((....))))).) ?
## Output -20.2

## Input Consider the sequence shown here: GCCTCGGGAAACTGAGGC (((((.(....).))))) What is its recorded folding enthalpy?
## Output -37.1

## Input Name the reported folding enthalpy value associated with the sequence GATCCAATCTTGGATC ((((((....))))))
## Output -33

## Input Suppose we examine the sequence GCACGCGAAAGCGAGTGC ((((((....)))..))) ; what folding enthalpy value has been reported?
## Output -21.1

## Input Sample GATCGAGATTTCGATC ((((((....)))))) — what was its folding enthalpy?
## Output -46.7

## Input Looking for the measured folding enthalpy of GATCCTGCTTAGGATC ((((((....)))))) , can you help?
## Output -42.9

## Input What does the data say about its folding enthalpy? Entry: GCGACTAGTCGC ((((....))))
## Output -28.9

## Input Dear colleague, I am looking for the recorded folding enthalpy of the following sequence: GCGTAGCGAAAGCTTGGC ((..(((....)))..))
## Output -7.38

## Input Please look up its folding enthalpy: GCTCGTGGAAACATGAGC ((((.((....)).))))
## Output -37.1

## Input # input sequence: GATCGCGAAAGCGTGATC ((((((....)))..))) ; wanted: its folding enthalpy
## Output -14.3

## Input Which folding enthalpy value belongs to GATTAACGAAAGTTATC (((.(((....)))))) ?
## Output -13.2

## Input Given the sequence GTGTCGGGAAACCGGTAC ((..(((....)))..)) , what is its reported folding enthalpy?
## Output -22.7

## Input I am curious: what folding enthalpy value has been reported for GCGTCGCGAAAGCATCGC (((..((....))..))) ?
## Output -17.9

## Input Given the sequence GATCCTTTGAAGGATC ((((((....)))))) , what is its reported folding enthalpy?
## Output -36

## Input // folding enthalpy lookup, key: GTGACCGAAAGGTGCAC ((((((....))).)))
## Output -19.9

## Input So what's the measured folding enthalpy for this one? GATCTGGCCACAGATC ((((((....))))))
## Output -39.6

## Input Look up folding enthalpy for this sequence: GCGATGGGAAACCGTCGC ((((.((....)).))))
## Output -50.2

## Input Entry GCACAGGGAAACCTGTAC (.(((((....))))).) : reported folding enthalpy = ?
## Output -12.6

## Input Which folding enthalpy is reported for this sequence? GATCACCTTAGTGATC ((((((....))))))
## Output -39.1

## Input What folding enthalpy value was documented for this sequence, GCTCAGCGAAAGCCAAGC (((..((....))..))) ?
## Output -16.4

## Input Quick check: folding enthalpy of GATCTCTTAGAGATC ((((((...)))))) ?
## Output -38.9

## Input What value of folding enthalpy has been reported for the following sequence? GCGGATCTCCGC ((((....))))
## Output -25.3

## Input Recorded folding enthalpy of GCTTTGGAAACAAAGC ((((((....)))))) , please.
## Output -38.1

## Input Form field: reported folding enthalpy of GCAAGGGGAAACCCTTGC (((((((....)))))))
## Output -38.3

## Input Entry GATACGAAAGTATC (((((....))))) has what folding enthalpy?
## Output -32.2

## Input Reported folding enthalpy, sequence GCTACGCGAAAGCGCGGC ((..(((....)))..)) : ____
## Output -16.1

## Input Given the sequence GTCAGGACGAAAGTCGAC (((..(((....)))))) , what is its reported folding enthalpy?
## Output -18.7

## Input Can you look up the measured folding enthalpy of GTCTGAACGAAAGTTGAC (((..(((....)))))) for me?
## Output -16.4

## Input Bench note: what folding enthalpy did TGGCTGAAAAGCCA (((((....))))) show?
## Output -18.4

## Input Which folding enthalpy value belongs to GACACGGGAAACCATGTC ((((.((....)).)))) ?
## Output -32.9

## Input Which folding enthalpy value belongs to GCCTCGCGAAAGCTATGC ((.(.((....)).).)) ?
## Output -4.77

## Input What value of folding enthalpy has been reported for the following sequence? CGTGGTCGGAAACGAACG (((..(((....))))))
## Output -16.3

## Input // lookup folding enthalpy for GCAAAGCGAAAGCATCGC ((.(.((....)).).))
## Output -10.8

## Input Which folding enthalpy value is on record for GATCCATGCGTGGATC ((((((....)))))) ?
## Output -35.8
